Numbers sourced from PubChem BioAssay (NCI).

system: COLO 205 colon; assay: NCI-60 one-dose screen, 48 h; details: 10 µM
Compounds without any hit were thinned out: in the full panel of roughly 83,000, 20% have a hit. Activity calls are given as the source filed them. How the source made its calls: active means growth percent below 10; inactive means the rest.
Select the matching outcome among active, inactive

Solved cases (4 shown):
compound=Cc1cccc(NC(=O)CSc2nc3ccc(F)cc3c(=O)n2-c2ccc(Cl)cc2)c1C classification=inactive
compound=O=c1[nH]c2ccccc2cc1CSc1ccc(Nc2nccc(-c3ccc4c(c3)OCO4)n2)cc1 classification=inactive
compound=COc1ccc(-c2cc(-c3cc(C(=O)c4ccccc4)n4ccc(C)cc34)nc(N)c2C#N)cc1 classification=inactive
compound=Cc1noc2c(Cc3ccccc3)nn(CC(=O)N/N=C/c3ccc(Br)cc3)c(=O)c12 classification=inactive

// return assay outcome for COC1CC(Cn2cc(COc3ccc4ccc(=O)oc4c3)nn2)C(OCc2ccccc2)C(OCc2ccccc2)C1OCc1ccccc1 (centres undefined) inactive

Write down the call the test reported for this compound. Item: COc1ccc(/C(CSc2nnc(-c3c[nH]c4ccccc34)n2-c2ccccc2)=N/O)cc1 inactive

###

system: KM12 colon; test: NCI-60 one-dose screen, 48 h; conditions: 10 µM
This is part of a sample that, as a whole, favours compounds with a hit. Of some 83,000 tested, about 20% had one in any assay. Activity calls are given as the source filed them. How the source made its calls: active means growth percent below 10; inactive means the rest.
Your answer must be one of the following: yes (active), no (inactive)

Worked examples follow.
smiles_text=CC(=O)Nc1ccc(-c2cn(-c3cccc(C(=O)Nc4cc(C(F)(F)F)cc(C(F)(F)F)c4)c3)nn2)cn1 classification=yes
smiles_text=COc1cc(/C=C/C(=O)c2ccc(F)cc2)ccc1Oc1nc(Nc2ccc(F)cc2)nc(N(C)C)n1 classification=no
smiles_text=CCCSc1nc(NC2CC2)c(C#N)c(-c2ccc(OC)cc2)n1 classification=no
smiles_text=Cc1ccc2nc3c(nc2c1)c1cc(I)ccc1n3CCN(C)C classification=no
smiles_text=COC1=C[C@@]23CCC(=O)N2CCc2cc4c(cc2[C@H]3[C@H]1OC(=O)C(C)(C)O)OCO4 classification=no

Lab note: next compound to report on.
For this compound, state the assay outcome: CN1CCc2c(sc3ncnc(N/N=C/c4ccc5ccccc5c4)c23)C1 no

###

tested on: NCI-H460 lung; assay: NCI-60 one-dose screen, 48 h (100 = growth as untreated, 0 = no growth, -100 = all killed); conditions: 10 µM
About 83,000 compounds went through this panel and 20% of them were active in at least one assay; those are over-represented in the sample as a whole. Activity calls are given as the source filed them. How the source made its calls: active means growth percent below 10; inactive means the rest.
Recorded growth by entry

compound=O=C(NO)c1ccc(CNC(=O)[C@H]2Cc3c([nH]c4ccccc34)[C@H](c3ccccc3)N2)cc1 target_entity="NCI-H460 lung" recorded_result="27.7% (inactive)"
compound=COc1ccc(-c2cc(C(=O)N=Nc3c(O)[nH]c4ccc(Br)cc34)c3ccccc3n2)cc1 target_entity="NCI-H460 lung" recorded_result="5.22% (active)"
compound=CN(C(=O)c1ccc(C(F)(F)F)cc1C(F)(F)F)c1sc2c(c1C#N)CCC(=O)C2 target_entity="NCI-H460 lung" recorded_result="113% (inactive)"
compound=N#Cc1ccc(-c2nn(-c3ccc(C(=O)O)cc3)cc2CNc2cc(Cl)cc(Cl)c2)cc1 target_entity="NCI-H460 lung" recorded_result="32.3% (inactive)"
compound=COc1cccc(C(N)=Nc2ccc(OCCCCCCn3cncn3)cc2)c1 target_entity="NCI-H460 lung" recorded_result="28.1% (inactive)"
compound=O=C(NO)c1ccc(-c2nc3ccc4[nH]ncc4c3c3c2CCCC3)cc1 target_entity="NCI-H460 lung" recorded_result="-43.4% (active)"
compound="COc1ccc([C@H]2C(C(=O)c3ccc(Cl)cc3)C3(N[C@@H]2c2ccccc2)C(=O)Nc2ccc(Br)cc23)cc1 (some centres undefined)" target_entity="NCI-H460 lung" recorded_result="-44.4% (active)"
compound=CN1CCN(c2ccc(Nc3nc(NCCCNC(=O)c4ccc(F)cc4)c4sccc4n3)cc2)CC1 target_entity="NCI-H460 lung" recorded_result="62.5% (inactive)"

Let's switch to this compound now.
Looking up CC1=C2C(=C[C@@](C)(COCOCCCl)[C@@H]2O)C(=O)[C@](C)(O)C12CC2 , I see its growth listed as -11% (active)
